Ref: patent US5525731A

IC50 values by entry
# Tested on: HL-60 cells (human promyelocytic leukemia)
# procedureSummary: Cytotoxicity, XTT assay, HL-60 cell growth, 72 hr exposure
# Format: cell-based
# runParameters: Homo sapiens, HL-60, 72 h, read-out: Inhibitory Concentrations IC50, Table I, HL-60 (head HL-6), 72 hr, XTT
experimentalReadout: IC50 (nM)

CC1(O)C(=O)OCc2c1cc1n(c2=O)Cc2cc3ccccc3nc2-1 (stereo not drawn) | 62
CCC1(O)C(=O)OC(C)c2c1cc1n(c2=O)Cc2cc3ccccc3nc2-1 (stereo not drawn) | 266

* * *

# System: HL-60 cells (human promyelocytic leukemia)
# procedureSummary: Cytotoxicity, XTT assay, HL-60 cell growth, 72 hr exposure
# Assay type: cell-based
# runParameters: Table I, HL-60 (head HL-6), 72 hr, XTT; read-out: Inhibitory Concentrations IC50
# Method: The synthesized compounds were evaluated for their cytotoxic effects on HL-60 (human promyelocytic leukemia) and 833K cells. The assay was conducted in 96-well microplates. […] The cytotoxicity of the compounds were determined by the XTT-microculture tetrazolium assay: 2',3'-bis(2-methoxy-4-nitro-5-sulfophenyl)-3-[(phenylamino)carbonyl]-2H-tetrazolium hydroxide (XTT) was prepared at 1 mg/mL in prewarmed (37° C.) medium without serum. […]
IC50 values by entry
experimentalReadout: IC50

CCC1C(=O)OCc2c1c(C(=O)OC)c1n(c2=O)Cc2cc3ccccc3nc2-1 (centres unmarked) [WS-4, 14-Carbomethoxy-20-deoxycamptothecin] | 2.44 µM
CCC1C(=O)OCc2c1c(C(=O)OC)c1n(c2=O)Cc2cc3ccccc3nc2-1 (centres unmarked) [WS-3, 14-Carbomethoxy-20-deoxycamptothecin] | 0.914 µM

* * *

pIC50 values by entry
# System: HL-60 cells (human promyelocytic leukemia)
# procedureSummary: Cytotoxicity, XTT assay, HL-60 cell growth, 72 hr exposure
# Type: cell-based
# runParameters: Table II, HL-60, 72 hr, XTT; read-out: Inhibitory Concentrations IC50
pIC50: −log10 of the molar value.
experimentalReadout: pIC50

CCC1C(=O)OCc2c1c(C(=O)OC)c1n(c2=O)Cc2cc3ccccc3nc2-1 (centres unmarked) [WS-4, 14-Carbomethoxy-20-deoxycamptothecin] | 5.61
CCC1C(=O)OCc2c1c(C(=O)OC)c1n(c2=O)Cc2cc3ccccc3nc2-1 (centres unmarked) [WS-3, 14-Carbomethoxy-20-deoxycamptothecin] | 6.71

* * *

# System: HL-60 cells (human promyelocytic leukemia)
# procedureSummary: Cytotoxicity, XTT assay, HL-60 cell growth, 72 hr exposure
# Type: cell-based
# runParameters: Homo sapiens, HL-60, 72 h, read-out: Inhibitory Concentrations IC50, Table II, HL-60, 72 hr, XTT
IC50 values by entry
experimentalReadout: IC50

CCC1(O)C(=O)OCc2c1c(C(=O)OC)c1n(c2=O)Cc2cc3ccccc3nc2-1 (stereo not drawn) [WS-5, 14-Carbomethoxy-Camptothecin] | > 5000 nM
CCC1(O)C(=O)OC(C)c2c1cc1n(c2=O)Cc2cc3ccccc3nc2-1 (stereo not drawn) [WS-6, 17-Methylcamptothecin] | 266 nM
CC1(O)C(=O)OCc2c1cc1n(c2=O)Cc2cc3ccccc3nc2-1 (stereo not drawn) [WS-7, 20-Methylcamptothecin] | 62 nM
